The measurements presented in this section are drawn from paper PMC9482650.

Target: T1, SHANK1, Q9Y566
T1 sequence (Q9Y566 658-767, limits assumed, looked up): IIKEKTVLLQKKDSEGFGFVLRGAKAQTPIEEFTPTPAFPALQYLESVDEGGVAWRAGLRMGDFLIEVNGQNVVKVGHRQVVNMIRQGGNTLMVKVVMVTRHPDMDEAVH
Assay: holdup assay
Set-up: key: below the threshold = too weak to quantify, mostly under pKd 3.1 to 4
Conditions: plain residues with an end cap or a label only (N-terminal biotin on a linker: ado-ado)
Consider the following binders; for each one, report its pKd.
A bare number is all that is needed in reply.

Look up pKd for this binder: EIPAQSPTCV [FZD10, Q9ULW2]
3.62

Sample PSVGSKKTVL [REELD1, A0A1B0GV85] — what was its pKd?
3.93

Could you share which pKd value was measured for LESTTVGTSV [KARS1, Q15046] ?
3.71
